- Tested on: Plasmodium falciparum
- protocol_description: GSK_TCMDC: Inhibition of Plasmodium falciparum 3D7 in whole red blood cells, using parasite LDH activity as an index of growth. Test compounds present at 2uM
- Type: functional
parameter: Inhibition (%)
Value expressed in %; do not type the unit.

Example entries begin here.
[[record]]
molecule = "CC(=O)Nc1ncc(C(=O)Nc2ccc(-c3cccc(-c4nc5cc(C(F)(F)F)ccc5[nH]4)c3)cc2)s1"
unit_abbrev = "%"
observed = 100

[[record]]
molecule = "CC(=O)c1ccc(N2CCN(C(=O)Nc3ccc(Cl)cc3)CC2)cc1"
unit_abbrev = "%"
observed = 97


If you can, please state the reported Inhibition value of Cc1cc(NC(=O)c2cccs2)ccc1OC1CCN(Cc2ccc(C#N)cc2)C1.O=C(O)C(F)(F)F (stereo unspecified) .
82

Could you share which Inhibition value was measured for COc1c(C2CCN(CCCCNC(=O)c3oc(-c4ccc(Cl)cc4)cc3CO)CC2)ccc2c1CCCC2 ?
100

Please give the measured Inhibition for this molecule: Cn1cccc1C(=O)Nc1cccc(-c2nn3ccccc3c2-c2ccnc(Nc3ccc4c(c3)OCCO4)n2)c1
95

---

- Test system: HepG2
- protocol_description: GSK_TCMDC: Percent inhibition of human HepG2 cell line. Test compounds present at 10uM.
- Assay type: functional
Classify by measured Inhibition: satisfied if it is equal to or exceeds 8%, not satisfied if it is smaller.

Solved cases below.
[[record]]
compound = "COc1ccc2nccc(N3CCC(SCCNCc4ccc5c(n4)NC(=O)CS5)C3)c2n1.Cl (centres undefined)"
category = "satisfied"

[[record]]
compound = "CC(C)(C)n1nnnc1C(c1cccnc1)N(Cc1ccccc1)Cc1ccc(Cl)cc1 (centres undefined)"
category = "not satisfied"


Is reported Inhibition greater than or equal to 8% here: CCNc1nc(OCC(F)(F)F)nc(N(c2ccccc2)c2ccccc2)n1
not satisfied

I'd appreciate it if you could say whether CCOC(=O)NCC(=O)Nc1cccc(-c2cccc(-c3nc4cccc(C)c4[nH]3)c2)c1 has Inhibition at least equal to 8%.
satisfied

Determine whether this compound has Inhibition no lower than 8%: Cc1cccn2c(=O)c3cc(C(=O)NCc4cccnc4)c(=N)n(CCc4ccccc4)c3nc12
not satisfied

Is reported Inhibition greater than or equal to 8% here: O=C(O)/C=C\C(=O)O.c1cc(CN2CCCCC2)cc(OCCCNc2ccnc3ccccc23)c1
satisfied

---

- Test system: Plasmodium falciparum
- protocol_description: GSK_TCMDC: Inhibition of Plasmodium falciparum Dd2 in whole red blood cells, using parasite LDH activity as an index of growth. Test compounds present at 2uM
- Type: functional
Field: label. Allowed values: yes (1) (Inhibition < 50%) or no (0) (Inhibition >= 50%).

Determine if Br.C=CCc1cccc(OC)c1OCCCON1C(=N)N=C(N)NC1(C)C shows Inhibition strictly lower than 50%.
no (0)

Strictly below 50% in Inhibition? Cc1cnccc1/C=C/c1cccc(OCCN2CCc3ccc(S(C)(=O)=O)cc3CC2)c1
no (0)

Consider COC1CCC(C(=O)Nc2ccc(-c3cccc(-c4nc5cccc(C)c5[nH]4)c3)cc2)CC1 (stereo unspecified) . Does its Inhibition lie strictly below 50%?
no (0)

Hi there! Is Inhibition for CCN(CCO)CCCC(C)Nc1ccnc2cc(Cl)ccc12.O=S(=O)(O)O (stereo unspecified) [HYDROXYCHLOROQUINE SULFATE] below 50%, do you know?
yes (1)

Please let me know if CS(=O)(=O)CCNCc1nc(-c2ccc3c(=O)[nH]cnc3c2)cs1 shows Inhibition below 50%.
no (0)

A record lists c1cncc(-c2cc(N3CCCCC3)nc(-c3ccncc3)n2)c1 . Is its Inhibition below 50%?
yes (1)

A record lists COc1cc(Cc2cnc(N)nc2N)cc(OCc2cccc(C(=O)O)c2)c1OC.Cl . Is its Inhibition below 50%?
yes (1)

Strictly below 50% in Inhibition? COc1cccc2cc(C(=O)N[C@@H](CC(C)C)C(=O)N[C@H](/C=N/N3C(=O)CN(Cc4ccccc4)C3=O)CCc3ccccc3)oc12
no (0)

# check: Inhibition < 50% for CCOc1ccc(-c2noc(-c3c[nH]c4ccccc4c3=O)n2)cc1
no (0)

A record lists CC1CCCN(C(=O)c2cc(-c3ccccn3)nc3c(Cl)cccc23)C1 (stereo unspecified) . Is its Inhibition below 50%?
yes (1)

Find out if reported Inhibition for O=C(Cn1cc(C(F)(F)F)cc(Cl)c1=O)N1CCN(S(=O)(=O)c2ccc(Cl)cc2)CC1 is less than 50%
no (0)

Input COc1ccc(-c2nccc(NC(=N)NCc3ccccc3)n2)cc1 ; condition: Inhibition strictly below 50%. Does it hold?
yes (1)
